- Experimental Context: buffer; pH 7.4; 200.0 µM
solubility kinetic for assorted compounds
Your answer should be a plain number; it is taken to be in mg/mL.

O=C(CC1OCC2CCCN2C1=O)Nc1ccc([N+](=O)[O-])cc1 (centres undefined) | 0.0455
COC(=O)c1cc(C(=O)OC)cc(-n2c(C)cc(C=O)c2C)c1 | 0.0358
CCOc1ccccc1NC(=O)Nc1ccsc1C(=O)OC | 0.0079

Exercise: What does the record list as solubility kinetic for COc1ccc(/C=C/C(=O)OCC(=O)NC(C)CCc2ccccc2)cc1OC (centres undefined) ?
Key: 0.0239

Exercise: Can you handle `O=C(O)c1nccnc1C(=O)NCCc1c[nH]c2ccccc12` next?
Key: 0.0421

Exercise: Another compound: `O=C(CCCCCl)Nc1c2c(nc3ccccc13)CCC2`
Key: 0.0316

Exercise: Cc1cc2c(OCC(O)CNCc3ccco3)cccc2[nH]1 (centres undefined) , same question.
Key: 0.0434

---

- Experimental Context: buffer; pH 7.4; 200.0 µM
Classify as follows. Reported solubility kinetic greater than or equal to 30 µg/mL: 1.0. Reported solubility kinetic below: 0.0.

Below are worked cases with known answers.
COc1ccc(-c2cc(C(=O)Nc3ccc(C)c(C)c3)no2)cc1 | 0.0
O=C(NCc1cccnc1)Nc1ccc(Cl)cc1Cl | 1.0
CN(C(=O)COc1ccc(Br)cc1Cl)C1CCCCC1 | 0.0
CCOc1ccc(C2C([N+](=O)[O-])=C(C)N(C)C(=O)N2C)cc1OC (stereo not drawn) | 1.0

Exercise: Exam item: decide whether the reported solubility kinetic for CC(Oc1ccccc1)C(=O)OCC(=O)Nc1ccc2c(c1)OCO2 (stereo not drawn) is at least 30 µg/mL.
Key: 1.0

Exercise: Similarly, CC1CCN(C(=O)c2ccc(N3C(=O)C4CCC(C)CC4C3=O)cc2)CC1 (stereo not drawn) ?
Key: 1.0

Exercise: Queued: `CC(=O)N1CCC(O)(c2ccc3c(c2)OCO3)CC1`
Key: 1.0

Exercise: Note, next up: `O=C(Nc1cccc(S(=O)(=O)Nc2ccc(SC(F)F)cc2)c1)C1CCC1`
Key: 1.0

Exercise: Thanks! And COc1ccc(C)cc1NC(=O)COC(=O)C1COc2ccccc2O1 (stereo not drawn) ?
Key: 1.0

---

- Experimental Context: buffer; pH 7.4; 200.0 µM
# solubility kinetic listing for each entry below
Provide the reading as a plain figure in µg/mL.

Exercise: I'd like to know its solubility kinetic. The molecule in question is `CCc1ccc(/C([O-])=C(/C(=S)NCCN2CCOCC2)[n+]2ccccc2)cc1`
Key: 55.4

Exercise: Similarly, Cc1cccc(N2CC(C)Cn3c2nc2c3c(=O)[nH]c(=O)n2C)c1 (stereo not drawn) ?
Key: 27

Exercise: Next entry: `Cc1ccc(S(=O)(=O)N2CCN(C)CC2)cc1C`
Key: 31.3

Exercise: Same read-out for `COc1ccc(NC(=O)Cn2cc(C(=O)C3CC3)c3ccccc32)cc1` ?
Key: 0.5

Exercise: One more molecule: OC1CCC(NC(=S)Nc2ccc(SC(F)F)cc2)CC1 (stereo not drawn)
Key: 43.8

Exercise: Next molecule up: `CSc1ncc(Cl)c(C(=O)Nc2ccc(C)c(C)c2)n1`
Key: 0.7

Exercise: Queued: `COc1ccc(CCNC(=O)c2cc(=O)c3cc(C)ccc3o2)cc1`
Key: 6.6

Exercise: Request: O=C1NC(c2ccccc2)Oc2ccccc21 (stereo not drawn)
Key: 22.9

Exercise: Same read-out for `Cc1ccc2[nH]c(CNC(=O)c3ccc(F)cc3)cc2c1` ?
Key: 4.7

Exercise: How about this molecule: `OCc1c[nH]c(=S)n1CCOc1cccc(C(F)(F)F)c1`
Key: 5.5

Exercise: Item: CN(C(=O)c1cccc(C(F)(F)F)c1)C1CCCc2ccccc21 (stereo not drawn)
Key: 19.5

Exercise: // query: CSc1ncccc1C(=O)OCC(=O)NC1CCCc2ccccc21 (stereo not drawn)
Key: 5.5

Exercise: Please do the same for `O=S(=O)(Nc1ccccn1)c1ccc(Br)cc1` as well.
Key: 37.9

Exercise: Proceed to `COc1ccc(NC2(C#N)CCCCC2)cc1`
Key: 12.4

Exercise: Now give it for `O=C(CCNc1ccccc1)c1cccc([N+](=O)[O-])c1` too.
Key: 32.7

Exercise: What do you get for COc1cc2c(cc1OC)C(c1cccc([N+](=O)[O-])c1)NC(=O)C2 (stereo not drawn) ?
Key: 26.1

Exercise: Subsequent entry: `Cc1cc(NC(=O)Cc2cc(F)cc(F)c2)no1`
Key: 7.5

Exercise: # repeat for `COc1ccccc1OCC(=O)NC1CCCCCCC1`
Key: 40.8

Exercise: Next up: Cc1ccc(C)c(NC(=O)CN2C(=O)NC(CCc3ccccc3)C2=O)c1 (stereo not drawn)
Key: 2.5

Exercise: Follow-up entry: `COc1ccccc1OCCC(=O)OCC(=O)NCc1ccc(F)cc1`
Key: 23.5

Exercise: What do we get for `Cc1cccc(N2CCN(C(=O)c3oc4ccc(Br)cc4c3C)CC2)c1C` ?
Key: 4.3

Exercise: Let us now turn to `Cc1ccc(S(=O)(=O)Nc2nc3ccc(N)cc3s2)cc1`
Key: 45.8
